These entries and their values trace back to patent US20120003245A1.

# EXPERIMENTAL SYSTEM: α-cobratoxin (Naja kaouthia, UniProt P01391)
# Sequence (P01391 whole entry): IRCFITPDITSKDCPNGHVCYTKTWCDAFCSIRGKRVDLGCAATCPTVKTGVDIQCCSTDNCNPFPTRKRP
OBSERVABLE: koff

Sample records with koff:
| BINDER | OBSERVED VALUE |
| --- | --- |
| anti-α-cobratoxin VHH C2 (VHH) VHH: QVKLEESGGGLVLPGGSLRLSCAASGSISSIYAMGWYRQAPGKQREVVAVITNGNSPNYADSVKGRFTISRDNAKNTVYLQMNSLKPEDTAVYYCNVEGVRYGDSWYDGDYWGQGTQVTVSS | 0.00019 s⁻¹ |
| anti-α-cobratoxin VHH C19 (VHH) VHH: QVKLEESGGGLAQAGGSLRLSCIGSGDISSFNAMGWYRQVPGKQRELVAFISSGGRSKYTDSVKGRFTISGDNAKNTVYLQMIDLKPEDTAVYYCNAGSVVSYETGNYYEPSNYWGQGTQVTVSS | 0.01 s⁻¹ |
| anti-α-cobratoxin VHH C43 (VHH) VHH: RVKLEESGGGLVQAGGSLRLSCAVSGSTFDDYAIGWYRQAPGKQREVVAVITNGNSPNYADSVKGRFTISRDNAKNTVYLQMNSLKPEDTAVYYCNVEGVRYGDSWYDGDYWGQGTQVTVSS | 0.0068 s⁻¹ |

Consider now this further binder.
Reported koff of anti-α-cobratoxin VHH C20 (VHH) VHH: QVKLEESGGGLVQPGGSLRLSCVGSGSISSFNGMGWYRQVPGKQRELVAFISSGGRSKYTDSVKGRFTISGDNAKSTVYLQMINLKPEDTAVYYCNVGSVLSYVTGNYYEPSDYWGQGTQVTVSS : 0.0017 s⁻¹
